Known IC50 of a selection of molecules
Tested on: PBMC
Assay Notes: Antiinflammatory activity against LPS-induced TNFalpha release in human PBMC preincubated for 30 mins measured after 3 hrs of LPS stimulation
Assay type: functional, cell-based
Reported Endpoint: IC50

• O=C1NCCc2[nH]c3c(ccc4cnc(-c5cncc(OCCN6CCOCC6)c5)cc43)c21 = 283 nM
• O=C1NCc2[nH]c3c(ccc4cnc(/C=C/c5ccccc5)cc43)c21 = 14 nM
• O=C1NCCCc2[nH]c3c(ccc4cnc(-c5ccccc5OCCN5CCOCC5)cc43)c21 = > 3000 nM
• COCCOc1cncc(-c2cc3c(ccc4c5c([nH]c43)CCNC5=O)cn2)c1 = 260 nM
• O=C1NCc2[nH]c3c(ccc4cnc(Nc5cccc(F)c5)cc43)c21 = 15 nM

* * *

Test system: PBMC
Assay Notes: Antiinflammatory activity against LPS-induced TNFalpha release in human PBMC preincubated for 30 mins measured after 3 hrs of LPS stimulation
Format: functional, cell-based
pIC50: −log10 of the molar value.
Known pIC50 of a selection of compounds
Reported Endpoint: pIC50

* COCCOc1cncc(-c2cc3c(ccc4c5c([nH]c43)CNC5=O)cn2)c1 | 6.38
* CNCc1[nH]c2c(ccc3cnc(/C=C/c4ccccc4)cc32)c1C(=O)O | 5.91
* O=C1NCc2[nH]c3c(ccc4cnc(-c5cccc(OCCN6CCOCC6)c5)cc43)c21 | 6.55
* COc1ccc(-c2cc3c(ccc4c5c([nH]c43)CN(C)NC5=O)cn2)cc1 | 5.63
* O=C1NOCc2[nH]c3c(ccc4cnc(/C=C/c5ccccc5)cc43)c21 | 7.34
* O=C1NCCc2[nH]c3c(ccc4cnc(-c5cccc(OCCN6CCOCC6)c5)cc43)c21 | 6.53

* * *

Test system: PBMC
Assay Notes: Antiinflammatory activity against LPS-induced TNFalpha release in human PBMC preincubated for 30 mins measured after 3 hrs of LPS stimulation
Assay type: functional, cell-based
Reported Endpoint: IC50 (nM)

• O=C1NCCc2[nH]c3c(ccc4cnc(/C=C/c5ccc(CN6CCOCC6)cc5)cc43)c21 = 9
• COc1ccc(-c2cc3c(ccc4c5c([nH]c43)CCNC5=O)cn2)cc1F = 97
• O=C1NCc2[nH]c3c(ccc4cnc(/C=C/c5cccc(CCN6CCOCC6)c5)cc43)c21 = 14
• O=C1NCc2[nH]c3c(ccc4cnc(-c5cncc(OCCN6CCOCC6)c5)cc43)c21 = 556
• COc1ccc(-c2cc3c(ccc4c5c([nH]c43)CNC5=O)cn2)cc1 = 198

* * *

Tested on: PBMC
Assay Notes: Antiinflammatory activity against LPS-induced TNFalpha release in human PBMC preincubated for 30 mins measured after 3 hrs of LPS stimulation
Type: functional, cell-based
pIC50: −log10 of the molar value.
Reported Endpoint: pIC50

* COCCOc1cncc(-c2cc3c(ccc4c5c([nH]c43)CCCNC5=O)cn2)c1 | 5.08
* O=C1NCCCc2[nH]c3c(ccc4cnc(/C=C/c5ccccc5)cc43)c21 | 6.69
* O=C1NCCc2[nH]c3c(ccc4cnc(/C=C/c5cccc(CCN6CCOCC6)c5)cc43)c21 | 7.49
* O=C1NCc2[nH]c3c(ccc4cnc(-c5ccccc5F)cc43)c21 | 6.04
* O=C1NCCCc2[nH]c3c(ccc4cnc(/C=C/c5ccc(CN6CCOCC6)cc5)cc43)c21 | 6.85
* O=C1NCCCc2[nH]c3c(ccc4cnc(-c5cncc(OCCN6CCOCC6)c5)cc43)c21 | 5.07
* COc1ccc(-c2cc3c(ccc4c5c([nH]c43)CCC5=O)cn2)cc1F | 5.85
* COc1ccc(-c2cc3c(ccc4c5c([nH]c43)CCCNC5=O)cn2)cc1 | 6.24
* O=C1NCc2[nH]c3c(ccc4cnc(/C=C/c5ccc(CN6CCOCC6)cc5)cc43)c21 | 8.30
* NCc1[nH]c2c(ccc3cnc(/C=C/c4ccccc4)cc32)c1C(=O)O | 6.13
